B1: scFv; the commonest letter at each place (parent)
chain 1: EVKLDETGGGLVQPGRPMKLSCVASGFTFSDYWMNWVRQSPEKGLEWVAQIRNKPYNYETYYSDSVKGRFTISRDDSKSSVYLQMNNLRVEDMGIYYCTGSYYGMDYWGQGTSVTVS
chain 2: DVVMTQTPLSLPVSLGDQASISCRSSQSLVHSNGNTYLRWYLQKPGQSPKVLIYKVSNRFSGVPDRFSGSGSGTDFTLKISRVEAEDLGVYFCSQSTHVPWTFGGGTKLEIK

Variants of: B1
Assay: Kd (Tite-Seq)
Conditions: with fluorescein; format: scFv 4-4-20, heavy + light
pKd: −log10 of the molar value.
Listed here: items and their measured pKd.

Known results for variants:
>  <variant descriptor>
chain 1 Y107D W108C

>  <pKd>
≤ 5.00

$$$$
>  <variant descriptor>
chain 1 Y32N M34V

>  <pKd>
≤ 5.00

$$$$
>  <variant descriptor>
chain 1 F29A W36S

>  <pKd>
≤ 5.00

$$$$
>  <variant descriptor>
chain 1 Y102N G104I

>  <pKd>
≤ 5.00

$$$$
>  <variant descriptor>
chain 1 M34L

>  <pKd>
8.85

$$$$
>  <variant descriptor>
chain 1 T28A D31L

>  <pKd>
8.18

$$$$
>  <variant descriptor>
chain 1 G104D M105L

>  <pKd>
≤ 5.00

$$$$
>  <variant descriptor>
chain 1 S101I Y103P M105E

>  <pKd>
≤ 5.00

$$$$
>  <variant descriptor>
chain 1 S30T V37W

>  <pKd>
≤ 5.00

$$$$
>  <variant descriptor>
chain 1 S30Y V37H

>  <pKd>
≤ 5.00

$$$$

Inquiry: Could you tell me which pKd is on file for chain 1 G104E ?
Reply text: ≤ 5.00

Inquiry: Again, but for chain 1 Y32E M34I
Reply text: ≤ 5.00

Inquiry: Would you kindly repeat that for chain 1 F29N W36H ?
Reply text: ≤ 5.00

Inquiry: // query: chain 1 M105K
Reply text: 8.26

Inquiry: Same lookup for chain 1 W33I V37S , please.
Reply text: ≤ 5.00

Inquiry: Subsequent entry: chain 1 G100W Y107R
Reply text: ≤ 5.00

Inquiry: Entry chain 1 S30T W36M please
Reply text: 7.70

Inquiry: // repeat for chain 1 G100W Y107Q and report
Reply text: ≤ 5.00
